Kindly supply the reported Radioactivity level (% ID/g) Brain (whole) values for the records listed here.
target: VAChT in the brain (Rattus norvegicus); construct: from tissue; host or cells: brain of living rats, tissue counted or sectioned after killing; assay: Inhibitory effects of non-radioactive ligands on cerebral distribution of (−)-[^11C]-o-methylvesamicol in rats; assay type: in vivo; settings: tracer (−)-[^11C]-o-MeVES 20 MBq i.v. together with ligand 500 nmol per kg, 30 minutes, whole brain, mean ± S.D. n = 4-6
Sequence (Q62666 whole entry): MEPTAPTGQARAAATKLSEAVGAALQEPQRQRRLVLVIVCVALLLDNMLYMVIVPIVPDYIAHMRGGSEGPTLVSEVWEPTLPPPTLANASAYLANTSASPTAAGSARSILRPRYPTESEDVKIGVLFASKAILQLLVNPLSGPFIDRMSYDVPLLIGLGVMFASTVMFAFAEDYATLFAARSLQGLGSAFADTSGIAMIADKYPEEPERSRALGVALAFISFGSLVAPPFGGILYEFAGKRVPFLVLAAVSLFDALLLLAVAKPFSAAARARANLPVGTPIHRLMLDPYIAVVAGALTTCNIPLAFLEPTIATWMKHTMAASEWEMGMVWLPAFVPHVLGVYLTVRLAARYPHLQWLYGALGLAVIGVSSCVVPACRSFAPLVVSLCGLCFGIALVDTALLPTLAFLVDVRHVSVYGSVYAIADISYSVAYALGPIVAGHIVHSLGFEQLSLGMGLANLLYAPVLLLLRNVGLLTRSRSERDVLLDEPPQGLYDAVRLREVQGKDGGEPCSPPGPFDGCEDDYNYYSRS
Mention the unit after the number when you answer.

Could you please provide reported Radioactivity level (% ID/g) Brain (whole) for CC(C)=CCN1CCC2(C)c3cc(O)ccc3CC1C2C (single isomer, unassigned; (+)) [(+)-Pentazocine, (+)-pentazocine] ? Thanks! 2.52 ± 0.40 % ID/g

Return Radioactivity level (% ID/g) Brain (whole) for the following compound: COc1ccc(CCN2CCN(CCCc3ccccc3)CC2)cc1OC 0.59 ± 0.07 % ID/g

For the compound OC1CCCCC1N1CCC(c2ccccc2)CC1 (single isomer, unassigned; (-)) [(−)-Vesamicol, 2-(4-Phenylpiperidino)-cyclohexanol] , give its reported Radioactivity level (% ID/g) Brain (whole). 0.70 ± 0.04 % ID/g

Assign Radioactivity level (% ID/g) Brain (whole) to the following record: Cc1ccccc1C1CCN(C2CCCCC2O)CC1 (single isomer, unassigned; (-)) [(−)-o-MeVES] 0.68 ± 0.10 % ID/g
